This collection of values is drawn from paper PMC5540273.

- System: CDKL2
- EXPERIMENTAL_CONTEXT: concentration: 1 μM, replicates: in singlicate; n = 1;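 further: KINOMEscan kinase panel screen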
Listed here: items and their measured %Inh.
# unit: % | format: bare number

COMPOUND: CC(=O)c1cccc(NC(=O)NC2CCN(c3ccnc(Nc4ccc(F)cc4)n3)C2)c1 (centres unmarked)
%Inh [%]: 59
//
COMPOUND: FC(F)(F)c1ccccc1-c1cc(-c2c[nH]nc2-c2ccccn2)ccn1
%Inh [%]: 6
//
COMPOUND: Cc1ccccc1-c1cc(-c2c[nH]nc2-c2ccccn2)ccn1
%Inh [%]: 10
//
COMPOUND: Fc1ccc(-c2nc3n(c2-c2ccncc2)CCS3)cc1
%Inh [%]: 4

Which %Inh value is on record for CCn1c(-c2c(N)noc2C)nc2cnccc21 ? 22

---

- Test system: ERBB4
- EXPERIMENTAL_CONTEXT: concentration: 1 μM, replicates: in singlicate; n = 1
QUANTITY: %Inh (%)
# unit: % | format: bare number

Which %Inh value is on record for Nc1nccc(-c2c(-c3ccc(F)cc3)ncn2C2CCN(Cc3ccccc3)CC2)n1 [SB-219980] ? 19

And Cc1ccc(NC(=O)c2ccc(Cl)cc2)cc1-c1ccc(C(=O)Nc2ccncc2)cc1 [GSK1398467] ? 12

And COc1ccc(Nc2nccc(N3CCC(NC(=O)C(C)c4ccc(Cl)cc4)CC3)n2)cc1 (stereo not shown) [GSK1379812] ? 0

And CS(=O)(=O)CCNCc1nc(-c2ccc3ncnc(Nc4ccc(OCc5ccccc5)c(Cl)c4)c3c2)cs1.Cl [GW582764] ? 97.8

And Cc1ccc(NC(=O)Nc2ccccc2)cc1-c1ccc(C(=O)Nc2ccncc2)cc1 [GSK1398471] ? 0

And COc1ccc(Nc2nccc(NCCNC(=O)Nc3cc(C)ccc3C)n2)cc1 [GSK1379899] ? 0

And CC(=O)c1c(C)c2cnc(Nc3ccn(C)n3)nc2n(C2CCCC2)c1=O ? 0

---

Listed here: items and their measured %Inh.
- Test system: MKNK1
- EXPERIMENTAL_CONTEXT: concentration: 1 μM, replicates: in singlicate; n = 1
# unit: % | format: bare number

COMPOUND: Cc1cnc(N)c(/C=C/c2cncc(C(=O)NCCc3ccc(Cl)cc3Cl)c2)c1.Cl [GSK190937]
ENDPOINT_UNIT: %
%Inh: 0

COMPOUND: CC(C)c1cc(-c2ccc3c(N)n[nH]c3c2)nc(N)n1 [GSK2250882]
ENDPOINT_UNIT: %
%Inh: 36

COMPOUND: Cc1ccc(NC(=O)Nc2ccccc2)cc1-c1ccc(C(=O)Nc2ccncc2)cc1 [GSK1398471]
ENDPOINT_UNIT: %
%Inh: 3

Which %Inh value is on record for Cc1c(Cn2c3ccccc3n3c(=O)cc(N4CCOCC4)nc23)cccc1C(F)(F)F [GSK2306394] ? 0

And COc1ccc(Nc2nccc(N3CCC(NC(=O)c4cc5ccccc5s4)C3)n2)cc1 (centres unmarked) [GSK1379738] ? 22

---

- Tested on: MARK4
- EXPERIMENTAL_CONTEXT: concentration: 1 μM, replicates: in singlicate; n = 1
QUANTITY: %Inh (%)
# unit: % | format: bare number

MOLECULE: COC(=O)c1cccc(NC(=O)NC2CCN(c3ccnc(Nc4ccc(OC)cc4)n3)C2)c1 (stereo not drawn)
OBSERVED_MEASUREMENT: 0

MOLECULE: Cc1ccc(NC(=O)Nc2ccc(Cl)c(C(F)(F)F)c2)cc1-c1ccc(C(=O)Nc2ccncc2)cc1
OBSERVED_MEASUREMENT: 0

Which %Inh value is on record for CNc1cc(-c2ccc3c(N)n[nH]c3c2)nc(N)n1 ? 0

And O=C(Nc1n[nH]c2cc(-c3ccsc3)ccc12)C1CC1 ? 12

And COc1ccc(Nc2nccc(N3CCC(NC(=O)C(C)c4ccc(Cl)cc4)C3)n2)cc1 (stereo not drawn) ? 0

And CC(=O)c1c(C)c2cnc(Nc3ccn(C)n3)nc2n(C2CCCC2)c1=O ? 0

---

- Tested on: ABL1-nonphosphorylated
- EXPERIMENTAL_CONTEXT: concentration: 1 μM, replicates: in singlicate; n = 1
QUANTITY: %Inh
The reply should read as a number followed by its unit.

COMPOUND: O=c1cc(N2CCOCC2)nc2n(Cc3cccc(Cl)c3Cl)c3ccccc3n12 [GSK2299009]
OBSERVED_MEASUREMENT: 0%
//
COMPOUND: Cc1ccccc1Cn1ccn2c(=O)cc(N3CCOCC3)nc12 [GSK2269905]
OBSERVED_MEASUREMENT: 0%
//
COMPOUND: COC(=O)C(Cc1ccccc1)NC(=O)NC1CCN(c2ccnc(Nc3ccc(F)cc3)n2)C1 (centres unmarked) [GSK1379714]
OBSERVED_MEASUREMENT: 0%

Which %Inh value is on record for Cl.Cl.Cl.N#Cc1ccc(CCNc2nccc(-c3cccc(CN4CCNCC4)c3)n2)cc1 [GSK2137462] ? 10%

And COC(=O)c1cccc(NC(=O)NC2CCN(c3ccnc(Nc4ccc(F)cc4)n3)C2)c1 (centres unmarked) [GSK1379725] ? 0%

And c1ccc(-c2ccnc3[nH]ccc23)cc1 [SB-693578] ? 0%

And COC(=O)c1cccc(NC(=O)NC2CCN(c3ccnc(Nc4ccc(OC)cc4)n3)C2)c1 (centres unmarked) [GSK1379746] ? 0%

And Nc1ncnc2occ(-c3ccc4c(c3)CCN4C(=O)Cc3cc(F)ccc3F)c12 [GSK2645446] ? 27%

And CNc1nc(-c2ccc3c(N)n[nH]c3c2)cc(N2C[C@@H](C(=O)NC3CCCCC3)OC[C@H]2C)n1 [GSK2375584] ? 6%

And Cc1ccccc1-c1cc(-c2c[nH]nc2-c2ccccn2)ccn1 [GW680061] ? 0%

And COc1ccc(Nc2nccc(NCCNC(=O)Nc3cc(C)ccc3C)n2)cc1 [GSK1379899] ? 0%

And O=C(Nc1n[nH]c2cc(-c3ccsc3)ccc12)C1CC1 [SB-732932] ? 47%

And Cc1ccc(NC(=O)Nc2ccc(Cl)cc2)cc1-c1ccc(C(=O)Nc2ccncc2)cc1 [GSK1398472] ? 2%

And Fc1ccc(-c2nn3cccc(F)c3c2-c2ccncc2)cc1 [GW475620] ? 0%

---

Listed here: items and their measured %Inh.
- System: PKMYT1
- EXPERIMENTAL_CONTEXT: concentration: 1 μM, replicates: in singlicate; n = 1
# unit: % | format: bare number

COMPOUND: CCn1c(-c2ccccc2)nc2cnccc21
TEST_TARGET: PKMYT1
ENDPOINT_UNIT: %
%Inh: 30

COMPOUND: O=c1cc(N2CCOCC2)nc2n(Cc3ccccc3F)ccn12
TEST_TARGET: PKMYT1
ENDPOINT_UNIT: %
%Inh: 0

COMPOUND: COc1ccc(Nc2nccc(N3CCC(NC(=O)C(C)c4ccc(Cl)cc4)C3)n2)cc1 (centres unmarked)
TEST_TARGET: PKMYT1
ENDPOINT_UNIT: %
%Inh: 0

COMPOUND: COc1cccc(C2=C(Nc3cc(Cl)c(O)c(Cl)c3)C(=O)NC2=O)c1
TEST_TARGET: PKMYT1
ENDPOINT_UNIT: %
%Inh: 4

Which %Inh value is on record for COc1cccc(NC(=O)Nc2ccc(C)c(-c3ccc(C(=O)Nc4ccncc4)cc3)c2)c1 ? 0

---

- Test system: BMX
- EXPERIMENTAL_CONTEXT: concentration: 1 μM, replicates: in singlicate; n = 1
Listed here: items and their measured %Inh.
# unit: % | format: bare number

// known answers, use as guide
MOLECULE: CC[C@@H]1CO[C@H](C(=O)Nc2ccccc2)CN1c1cc(-c2ccc3c(N)n[nH]c3c2)nc(NC)n1
TEST_TARGET: BMX
ENDPOINT_UNIT: %
%Inh: 41
--
MOLECULE: Fc1ccc(-c2nc[nH]c2-c2ccncc2)cc1
TEST_TARGET: BMX
ENDPOINT_UNIT: %
%Inh: 0

Which %Inh value is on record for CCc1ccc(-c2ccc3c(c2)-c2n[nH]cc2S(=O)(=O)N3C)cc1 ? 0

And CCCCc1nn2ncccc2c1-c1ccnc(NC2CC2)n1 ? 4

And Cc1c(Cn2c3ccccc3n3c(=O)cc(N4CCOCC4)nc23)cccc1C(F)(F)F ? 0

And CS(=O)(=O)CCNCc1nc(-c2ccc3ncnc(Nc4ccc5c(cnn5Cc5ccccc5)c4)c3c2)cs1.Cl.Cl ? 2

And O=c1cc(N2CCOCC2)nc2n(Cc3ccccc3F)ccn12 ? 13

And CN1c2ccc(-c3ccc(C(N)=O)cc3)cc2-c2[nH]ncc2S1(=O)=O ? 0

And Cc1ccc(NC(=O)Nc2ccccc2)cc1-c1ccc(C(=O)Nc2ccncc2)cc1 ? 18

And Fc1ccc(-c2nc3n(c2-c2ccncc2)CCS3)cc1 ? 12

And Cc1ccc(NC(=O)Nc2ccccc2F)cc1-c1ccc(C(=O)Nc2ccncc2)cc1 ? 29

And COc1ccc2cc(-c3nc(-c4ccccc4C(C)C)[nH]c3-c3ccncc3)ccc2c1 ? 0

And CCn1c(-c2c(N)noc2C)nc2cnccc21 ? 0

And CC(C)c1cc(-c2ccc3c(N)n[nH]c3c2)nc(N)n1 ? 18

And Nc1nccc(-c2c(-c3ccc(F)cc3)ncn2C2CCN(Cc3ccccc3)CC2)n1 ? 0

And FC(F)(F)c1ccccc1-c1cc(-c2c[nH]nc2-c2ccccn2)ccn1 ? 0

And COc1cccc(CNC(=O)NC2CCN(c3ccnc(Nc4ccc(F)cc4)n3)C2)c1 (stereo not drawn) ? 7

And CC(=O)c1c(C)c2cnc(Nc3ccc(N4CCNCC4)cn3)nc2n(C2CCCC2)c1=O ? 0
